tested on: PXR homodimer (NR concentration 270 nM); assay: PBM binding z-score (relative to random genomic background probes); higher = stronger binding; sequences stand for … in GC…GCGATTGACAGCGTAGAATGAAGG

[
  {
    "QUERY SEQUENCE": "CGAACTAGGTCACTGACAGGACAGTGAATAGTAA",
    "TARGET UNDER TEST": "PXR homodimer (NR concentration 270 nM)",
    "PBM binding z-score": -0.168
  },
  {
    "QUERY SEQUENCE": "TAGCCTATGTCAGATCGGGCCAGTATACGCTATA",
    "TARGET UNDER TEST": "PXR homodimer (NR concentration 270 nM)",
    "PBM binding z-score": -0.853
  },
  {
    "QUERY SEQUENCE": "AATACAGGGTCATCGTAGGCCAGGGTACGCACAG",
    "TARGET UNDER TEST": "PXR homodimer (NR concentration 270 nM)",
    "PBM binding z-score": 0.528
  },
  {
    "QUERY SEQUENCE": "ACAGACAGGGGAGTGAAGGTAACTCAGCTGGACG",
    "TARGET UNDER TEST": "PXR homodimer (NR concentration 270 nM)",
    "PBM binding z-score": 0.147
  },
  {
    "QUERY SEQUENCE": "CCTAGCAGGCCAAGGTCACTCAAGCATTTCGCTT",
    "TARGET UNDER TEST": "PXR homodimer (NR concentration 270 nM)",
    "PBM binding z-score": 0.64
  },
  {
    "QUERY SEQUENCE": "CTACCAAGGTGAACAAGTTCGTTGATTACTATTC",
    "TARGET UNDER TEST": "PXR homodimer (NR concentration 270 nM)",
    "PBM binding z-score": 4.46
  }
]
